Consider the following compounds; for each one, report its Fluorescence Assay IC50.
Target: HIV-1 protease (Human immunodeficiency virus type 1 group M subtype B, UniProt P04585)
Construct: made in house; host or cells: E. coli K12 L507/pHP10D (NRRL B-18560)
Assay: Fluorescence HIV-1 Protease Inhibitor Assay
Type: biochemical
Conditions: purified HIV-1 protease, biotin/FITC-labelled peptide substrate, Pandex read-out; all values normalized to the positive control (= 1.0)
Give bare numbers, in ng/mL.

Examples from the recorded data:
*Q* Need Fluorescence Assay IC50, item CC(C)(C)NC(=O)c1ccccc1CC(O)C(Cc1ccccc1)NC(=O)C(CC(N)=O)NC(=O)C(Cc1ccccc1)NC(=O)OC(C)(C)C (stereo not drawn) [Example 10]
*A* 1.67

*Q* Need Fluorescence Assay IC50, item CC(C)(C)NC(=O)c1ccccc1CC(O)C(Cc1ccccc1)NC(=O)C(CC(N)=O)NC(=O)C(NC(=O)OC(C)(C)C)c1ccccc1 (stereo not drawn)
*A* 106

*Q* Need Fluorescence Assay IC50, item CC(C)(C)NC(=O)c1cccc(CC(O)C(Cc2ccccc2)NC(=O)C(CC(N)=O)NC(=O)C(Cc2c[nH]c3ccccc23)NC(=O)OC(C)(C)C)c1 (stereo not drawn)
*A* 1.05

I need Fluorescence Assay IC50 for every entry listed below, if you could help.
1. CC(C)(C)NC(=O)c1ccccc1CC(O)C(Cc1ccccc1)NC(=O)C(CC(N)=O)NC(=O)C(N)Cc1cccc2ccccc12 (stereo not drawn)
2. CC(C)(C)NC(=O)c1ccccc1CC(O)C(Cc1ccccc1)NC(=O)C(CC(N)=O)NC(=O)C(Cc1cccc2ccccc12)NC(=O)OC(C)(C)C (stereo not drawn) [Example 6]
3. CC(C)(C)NC(=O)c1ccccc1CC(O)C(Cc1ccccc1)NC(=O)C(Cc1c[nH]cn1)NC(=O)C(Cc1cccc2ccccc12)NC(=O)OC(C)(C)C (stereo not drawn) [Example 11C]

*A*
1. 0.95
2. 2.4
3. 7.78

###

Target: HIV-1 protease (Human immunodeficiency virus type 1 group M subtype B, UniProt P04585)
Construct: made in house; host or cells: E. coli K12 L507/pHP10D (NRRL B-18560)
Assay: Fluorescence HIV-1 Protease Inhibitor Assay
Assay type: biochemical
Details: purified HIV-1 protease, biotin/FITC-labelled peptide substrate, Pandex read-out; all values normalized to the positive control (= 1.0)
Consider the following compounds; for each one, report its Fluorescence Assay IC50.

Examples from the recorded data:
*Q* Need Fluorescence Assay IC50, item CC(C)(C)NC(=O)c1ccccc1CC(O)C(Cc1ccccc1)NC(=O)C(CC(N)=O)NC(=O)C(Cc1cccc2ccccc12)NC(=O)OC(C)(C)C (centres unmarked) [Example 13]
*A* > 10000 ng/mL

*Q* Need Fluorescence Assay IC50, item CC(C)C(NC(=O)C(Cc1cccc2ccccc12)NC(=O)OC(C)(C)C)C(=O)NC(Cc1ccccc1)C(O)Cc1ccccc1C(=O)NC(C)(C)C (centres unmarked) [Example 1C]
*A* 1.44 ng/mL

*Q* Need Fluorescence Assay IC50, item CC(C)(C)NC(=O)c1ccccc1CC(O)C(Cc1ccccc1)NC(=O)C(CC(N)=O)NC(=O)C(Cc1cccc2ccccc12)NC(=O)OC(C)(C)C (centres unmarked) [Example 5C]
*A* 0.53 ng/mL

*Q* Need Fluorescence Assay IC50, item CC(C)(C)NC(=O)c1ccccc1CC(O)C(Cc1ccccc1)NC(=O)C(Cc1c[nH]cn1)NC(=O)C(Cc1cccc2ccccc12)NC(=O)OC(C)(C)C (centres unmarked) [Example 12]
*A* 1.6 ng/mL

*Q* Need Fluorescence Assay IC50, item CC(C)(C)NC(=O)c1ccccc1CC(O)C(Cc1ccccc1)NC(=O)C(CC(N)=O)NC(=O)C(Cc1c[nH]c2ccccc12)NC(=O)OC(C)(C)C (centres unmarked)
*A* 0.93 ng/mL

I need Fluorescence Assay IC50 for every entry listed below, if you could help.
1. CC(C)C(NC(=O)C(N)Cc1cccc2ccccc12)C(=O)NC(Cc1ccccc1)C(O)Cc1ccccc1C(=O)NC(C)(C)C (centres unmarked)
2. CC(C)C(NC(=O)C(Cc1cccc2ccccc12)NC(=O)OC(C)(C)C)C(=O)NC(Cc1ccccc1)C(O)Cc1ccccc1C(=O)NC(C)(C)C (centres unmarked) [Example 2]

*A*
["0.48 ng/mL", "3.13 ng/mL"]

*Q* Need Fluorescence Assay IC50, item CC(C)(C)NC(=O)c1ccccc1CC(O)C(Cc1ccccc1)NC(=O)C(CC(N)=O)NC(=O)C(Cc1ccccc1)NC(=O)OC(C)(C)C (centres unmarked) [Example 9]
*A* 1.76 ng/mL
